Test system: PCSK9 gene
Assay: PCSK9 gRNA/SpCas9 editing in primary cynomolgus hepatocytes (Tables 2, 22)
Type: cell-based, cynomolgus monkey
Conditions: SpCas9 mRNA MS002, 2500 ng/test article/mL, rep1
In the oligonucleotide strings, read from the 5' end, every base follows the letter of its sugar. An asterisk marks phosphorothioate; unmarked linkages are phosphodiester. Other units and linkages are bracketed, terminal groups are in braces. A string of capitals states the bases alone. m = 2'-O-methyl; r = 2'-OH (RNA)
Known Cynomolgus Primary Hepatocytes-% Editing of a selection of molecules
Observed property: Cynomolgus Primary Hepatocytes-% Editing (%)

{"columns": ["Molecule", "Units of measure", "Test result"],
 "data": [
  ["GA405: gRNA targeting PCSK9 with modifications to the tracr, for SpCas9 (nucleic acid) guide: mU*mC*mA*rGrCrUrCrCrArGrGrCrGrGrUrCrCrUrGrGmGrUrUrUrUrArGmAmGmCmUmAmGmAmAmAmUmAmGmCmAmArGrUrUmArAmArAmUrAmAmGmGmCmUmArGrUrCmCrGrUrUrAmUmCrArAmCmUmUmGmAmAmAmAmAmGmUmGmGmCmAmCmCmGmAmGmUmCmGmGmUmGmCmU*mU*mU*mUmUrUmU", "%", 41.85],
  ["GA395 (nucleic acid) guide: mU*mC*mA*rGrCrUrCrCrArGrGrCrGrGrUrCrCrUrGrGmGrUrUrUrUrArGmAmGmCmUmArGmAmAmAmUmAmGmCmAmArGrUrUmArAmArAmUrAmAmGmGmCmUmArGrUmCmCrGrUrUrAmUmCrArAmCmUmUrGmAmAmAmAmAmGmUmGrGmCmAmCmCmGmAmGmUmCmGmGmUmGmCmU*mU*mU*mUmUmUmU", "%", 43.91]
]}

Every entry's value here was drawn from patent US20250152746A1.
